target: S1P1 (membranes prepared from S1P1/CHO cells) (Homo sapiens (Human), UniProt P21453); test: Receptor [35S] GTPγS binding assay (S1P1 GTPγS); type: biochemical; details: phosphate examples; read-out: S1P1 GTPγS
Sequence (P21453 whole entry): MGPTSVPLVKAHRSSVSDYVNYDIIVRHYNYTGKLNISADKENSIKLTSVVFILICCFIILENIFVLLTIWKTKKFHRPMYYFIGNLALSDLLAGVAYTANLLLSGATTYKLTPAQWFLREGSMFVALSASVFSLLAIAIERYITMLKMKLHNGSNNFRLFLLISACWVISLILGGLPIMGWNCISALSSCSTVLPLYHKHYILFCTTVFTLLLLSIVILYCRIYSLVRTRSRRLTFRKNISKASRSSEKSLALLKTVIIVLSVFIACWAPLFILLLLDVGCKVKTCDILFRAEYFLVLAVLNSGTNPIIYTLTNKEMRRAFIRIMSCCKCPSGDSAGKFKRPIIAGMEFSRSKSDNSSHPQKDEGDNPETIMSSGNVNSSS
pEC50: −log10 of the molar value.
measuredQuantity: pEC50

Q) State its pEC50 for this molecule: CCCCC=C[C@H]1CCc2cc([C@H]3CC[C@](N)(COP(=O)(O)O)C3)ccc2C1 [compound 649]
A) 6.00 to 7.00

Q) Give the value of pEC50 reported for the following: COc1cccc(OCC[C@@H]2CCc3cc([C@H]4CC[C@](N)(COP(=O)(O)O)C4)ccc3C2)c1 [compound 544]
A) 6.00 to 7.00

Q) Look up and state reported pEC50 for COCc1ccc(C[C@@H]2CCc3cc([C@H]4CC[C@](N)(COP(=O)(O)O)C4)ccc3C2)cc1 [compound 550]
A) 7.00 to 8.00

Q) Identify pEC50 associated with the molecule CC(C)(C)CCSC[C@H]1CCc2cc([C@H]3CC[C@](N)(COP(=O)(O)O)C3)ccc2C1 [compound 518]
A) > 8.00

Q) Answer with the recorded pEC50 for the molecule listed here: CCCCSC[C@@H]1CCc2cc([C@@H]3CC[C@](N)(COP(=O)(O)O)C3)ccc2C1 [compound 506]
A) > 8.00

Q) Provide pEC50 value for the following molecule: CCCCNC(=O)OC1CCc2cc([C@H]3CC[C@@](N)(COP(=O)(O)O)C3)ccc2C1 (some centres unmarked) [compound 625]
A) 6.00 to 7.00

Q) Return pEC50 (reported value) for this molecule: COCC[C@@H]1CCc2cc([C@H]3CC[C@](N)(COP(=O)(O)O)C3)ccc2C1 [compound 540]
A) 6.00 to 7.00

Q) Check the records and state pEC50 for Cc1ccc(OC[C@H]2CCc3cc([C@H]4CC[C@](N)(COP(=O)(O)O)C4)ccc3C2)cc1 [compound 466]
A) 7.00 to 8.00

Q) Please report the measured pEC50 for CCCCCC1CCc2cc([C@H]3CC[C@](N)(COP(=O)(O)O)C3)ccc2C1 (some centres unmarked) [compound 576]
A) 6.00 to 7.00

Q) Could you please provide reported pEC50 for CC(C)CC/C=C/[C@@H]1CCc2cc([C@H]3CC[C@](N)(COP(=O)(O)O)C3)ccc2C1 [compound 645] ? Thanks!
A) 7.00 to 8.00

Q) For the molecule C#CCCOCCO[C@H]1CCc2cc([C@@H]3CC[C@@](N)(COP(=O)(O)O)C3)ccc2C1 [compound 586] , report pEC50.
A) 7.00 to 8.00

Q) Report pEC50 for CCOc1cccc(C[C@@H]2CCc3cc([C@H]4CC[C@](N)(COP(=O)(O)O)C4)ccc3C2)c1 [compound 551]
A) 7.00 to 8.00

Q) Dear colleague, please send me the reported pEC50 for CCCCC[C@H]1CCc2cc([C@@H]3CC[C@@](N)(COP(=O)(O)O)C3)ccc2C1 [compound 578] when you can.
A) 7.00 to 8.00

Q) For the molecule CCCCCC[C@H]1COc2cc([C@H]3CC[C@](N)(COP(=O)(O)O)C3)ccc2C1 [compound 424] , give its measured pEC50 value.
A) 7.00 to 8.00

====

Biological target: S1P1 (membranes prepared from S1P1/CHO cells) (Homo sapiens (Human), UniProt P21453)
Assay: Receptor [35S] GTPγS binding assay (S1P1 GTPγS)
Format: biochemical
Conditions: phosphate examples; read-out: S1P1 GTPγS
Protocol: Receptor [^35S] GTPγS Binding Assays: (S1P1 GTPγS/S1P3 GTPγS) Compounds were loaded in a 384 Falcon v-bottom plate (0.5 μl/well in a 11 point, 3-fold dilution). Membranes prepared from S1P1/CHO cells or EDG3-Gal5-bla HEK293T cells (EDG3 equivalent S1P3) were added to the compound plate (40 μl/well, final protein 3 μg/well) with MULTIDROP®. [^35S] […]
Would you mind telling me the reported EC50 of each entry?

Q) Fill in EC50 for COc1ccccc1SC[C@@H]1CCc2cc([C@H]3CC[C@](N)(COP(=O)(O)O)C3)ccc2C1 [compound 527] tested with S1P1 (membranes prepared from S1P1/CHO cells) (Homo sapiens (Human), UniProt P21453).
A) < 10 nM

Q) Report value: EC50, system: S1P1 (membranes prepared from S1P1/CHO cells) (Homo sapiens (Human), UniProt P21453), molecule: COC(C)CCCCC1CCc2cc([C@H]3CC[C@](N)(COP(=O)(O)O)C3)ccc2C1 (single isomer, unassigned) [compound 611]
A) < 10 nM

Q) State recorded EC50 with S1P1 (membranes prepared from S1P1/CHO cells) (Homo sapiens (Human), UniProt P21453), entry COCc1cccc(OC[C@@H]2CCc3cc([C@H]4CC[C@](N)(COP(=O)(O)O)C4)ccc3C2)c1 [compound 480] , no comment.
A) < 10 nM

Q) Tell me EC50 of COc1cccc(CCC[C@@H]2CCc3cc([C@H]4CC[C@](N)(COP(=O)(O)O)C4)ccc3C2)c1 [compound 564] when tested on S1P1 (membranes prepared from S1P1/CHO cells) (Homo sapiens (Human), UniProt P21453).
A) 10 to 100 nM

Q) Using S1P1 (membranes prepared from S1P1/CHO cells) (Homo sapiens (Human), UniProt P21453) as the test system, report measured EC50 of CCOc1cccc(C[C@H]2CCc3cc([C@H]4CC[C@](N)(COP(=O)(O)O)C4)ccc3C2)c1 [compound 548] .
A) 10 to 100 nM

Q) Provide S1P1 (membranes prepared from S1P1/CHO cells) (Homo sapiens (Human), UniProt P21453) EC50 reading for CCCCCSC[C@@H]1CCc2cc([C@H]3CC[C@](N)(COP(=O)(O)O)C3)ccc2C1 [compound 513] .
A) 10 to 100 nM

Q) Supply EC50 measured with S1P1 (membranes prepared from S1P1/CHO cells) (Homo sapiens (Human), UniProt P21453) for CCCCOCCO[C@@H]1CCc2cc([C@@H]3CC[C@@](N)(COP(=O)(O)O)C3)ccc2C1 [compound 592] .
A) 10 to 100 nM

Q) Provide EC50, system S1P1 (membranes prepared from S1P1/CHO cells) (Homo sapiens (Human), UniProt P21453), entry CCCC[S+]([O-])C[C@@H]1CCc2cc([C@H]3CC[C@](N)(COP(=O)(O)O)C3)ccc2C1 (some centres unmarked) [compound 668]
A) < 10 nM

Q) Answer with EC50 of CCCCOC[C@@H]1COc2cc([C@@H]3CC[C@](N)(COP(=O)(O)O)C3)ccc2O1 [compound 415] measured for S1P1 (membranes prepared from S1P1/CHO cells) (Homo sapiens (Human), UniProt P21453).
A) 10 to 100 nM

Q) Provide EC50, recorded with S1P1 (membranes prepared from S1P1/CHO cells) (Homo sapiens (Human), UniProt P21453), of COc1cccc(OCC[C@H]2CCc3cc([C@H]4CC[C@](N)(COP(=O)(O)O)C4)ccc3C2)c1 [compound 545]
A) 10 to 100 nM

Q) Report measured EC50 on S1P1 (membranes prepared from S1P1/CHO cells) (Homo sapiens (Human), UniProt P21453); entry: N[C@]1(COP(=O)(O)O)CC[C@H](c2ccc3c(c2)CC[C@@H](COCc2ccc(C(F)(F)F)s2)C3)C1 [compound 499]
A) 10 to 100 nM

Q) Param request: EC50 | system S1P1 (membranes prepared from S1P1/CHO cells) (Homo sapiens (Human), UniProt P21453) | item CC(C)CN(C)C(=O)c1cccc(OC[C@@H]2CCc3cc([C@H]4CC[C@](N)(COP(=O)(O)O)C4)ccc3C2)c1 [compound 500]
A) < 10 nM

Q) Retrieve EC50 on S1P1 (membranes prepared from S1P1/CHO cells) (Homo sapiens (Human), UniProt P21453); query CCCCCCCCCCOC[C@H]1CCc2cc([C@H]3CC[C@](N)(COP(=O)(O)O)C3)ccc2C1 [compound 450]
A) < 10 nM

Q) With S1P1 (membranes prepared from S1P1/CHO cells) (Homo sapiens (Human), UniProt P21453) as the test system, provide measured EC50 for this molecule: CCCCO[C@H]1CCc2cc([C@H]3CC[C@](N)(COP(=O)(O)O)C3)ccc2C1 [compound 436]
A) 10 to 100 nM

====

biological target: hS1P1/CHO cells (Homo sapiens (Human), UniProt P21453); experiment: hS1P1 ERK phosphorylation (S1P1 pERK); settings: phosphate examples
So I've got a bunch of molecules here, and I need their EC50 values.

Q) Let me know recorded EC50 for CCCC/C=C\CO[C@H]1CCc2cc([C@H]3CC[C@](N)(COP(=O)(O)O)C3)ccc2C1 [compound 440] , thanks.
A) < 10 nM

Q) Give the reported EC50 for this molecule. COCCCC[C@H]1CCc2cc([C@@H]3CC[C@@](N)(COP(=O)(O)O)C3)ccc2C1 [compound 596]
A) < 10 nM

Q) Please supply the value of reported EC50 for the item N[C@]1(COP(=O)(O)O)CC[C@H](c2ccc3c(c2)CCC2(CCCCO2)C3)C1 (stereo partly drawn) [compound 634]
A) 10 to 100 nM

These entries and their values trace back to patent US9522888B2.
